study.system: human μ-opiate receptor (Homo sapiens)
Sequence (P35372 whole entry): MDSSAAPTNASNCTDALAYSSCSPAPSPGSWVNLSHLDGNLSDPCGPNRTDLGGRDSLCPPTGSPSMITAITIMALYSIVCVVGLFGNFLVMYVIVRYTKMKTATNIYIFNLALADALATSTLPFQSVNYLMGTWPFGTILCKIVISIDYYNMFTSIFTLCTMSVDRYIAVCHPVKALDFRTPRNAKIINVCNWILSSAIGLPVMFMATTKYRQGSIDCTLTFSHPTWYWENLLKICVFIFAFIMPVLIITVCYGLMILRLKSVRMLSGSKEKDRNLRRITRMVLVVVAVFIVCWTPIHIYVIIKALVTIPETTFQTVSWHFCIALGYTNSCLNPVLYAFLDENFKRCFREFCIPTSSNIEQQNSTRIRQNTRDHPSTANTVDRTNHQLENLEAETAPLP
method.summary: Affinity for the human μ-opiate receptor ([3H]-naloxone displacement, SPA, CHO-K1 membrane preparation)
Type: binding
measurement.conditions: read-out: μ-Opioid receptor, Ki
value.type: Ki (µM)
The reply should contain only the number, in µM.

Some entries whose results are on file:
1. CN(C)C(c1ccccc1)C1CCC(NC(=O)c2scc(S(C)(=O)=O)c2Cl)CC1 (centres unmarked) | 0.02
2. CN(C)C(c1ccccc1)C1CCC(CCNC(=O)c2ccc(Cl)c(Cl)c2)CC1 (centres unmarked) | 0.019
3. Cc1oc(-c2ccccc2)cc1C(=O)NC1CCC(C(c2ccccc2)N(C)C)CC1 (centres unmarked) | 0.028
4. Cc1cc(C(=O)NC2CCC(C(c3cccs3)N(C)C)CC2)n(C(C)(C)C)n1 (centres unmarked) | 0.016
5. Cc1ccccc1C(=O)NCCC1CCC(C(c2cccc(F)c2)N(C)C)CC1 (centres unmarked) | 0.016

State the measured Ki (human μ-opiate receptor (Homo sapiens)) of COc1ccc(C(=O)NC2CCC(C(c3ccccc3)N(C)C)CC2)c(OC)c1 (centres unmarked)
0.056

Ref: patent US8058475B2
